Target: T1, PUF4 RNA-binding domain (Saccharomyces cerevisiae, UniProt P25339 537-888)
T1 sequence: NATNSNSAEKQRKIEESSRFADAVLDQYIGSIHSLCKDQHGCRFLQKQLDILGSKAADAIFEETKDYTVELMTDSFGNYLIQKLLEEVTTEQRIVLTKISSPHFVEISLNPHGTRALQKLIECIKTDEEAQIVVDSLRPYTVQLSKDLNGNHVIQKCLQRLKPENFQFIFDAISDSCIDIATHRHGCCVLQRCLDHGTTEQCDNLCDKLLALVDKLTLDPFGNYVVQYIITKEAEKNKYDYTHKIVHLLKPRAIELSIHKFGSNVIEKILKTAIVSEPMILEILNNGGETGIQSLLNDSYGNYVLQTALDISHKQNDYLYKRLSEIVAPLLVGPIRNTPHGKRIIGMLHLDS
Assay: Mg; RNA-MaP; 20 mM Na-HEPES pH 7.4, 30 mM KOAc, 0.75 mM MgCl2, 0.1% Tween-20, 5% glycerol, 0.1 mg/mL BSA, 2 mM DTT; 25 C; 0.0125-409.6 nM protein
Conditions: tags: N-His6-TEV cleaved; C-SNAP kept, Cy3B-labelled; label: tethered on chip by stalled RNA polymerase
Measure Name: pKd
Here pKd is given on a logarithmic scale as minus log10 of the concentration in mol/L.

For orientation, consider the following solved cases.
{"Binder": "Ic_S2_P3E.1_K3.1_C3.1_H3.1_A3.1_[T5C]_[A6T]_F3.1_[A8C]_T3.1 (ssRNA) RNA: UUUGAUUAAUAUGAUAUCGUUCUUUCUUGUACUUCUUCUUUCUCGAUAUCAUAUUAAUCUUU", "Number": 7.44}
{"Binder": "Id_ii_S2_P3E.3_K3.2_C3.2_[T-1A]_H3.2_A3.1_F3.1_T3.2_[A10C] (ssRNA) RNA: UUUGAUUAAUAUGAUAUCGUUCUUUCUCAUAUAUAUAUCUUCUUUCUCGAUAUCAUAUUAAUCUUU", "Number": 6.64}
{"Binder": "Id_ii_S2_P4E.2_K4.1_C4.2_[C-2A]_H4.1_A4.1_F4.1_T4.2_[G10T]_[T11G] (ssRNA) RNA: UUUGAUUAAUAUGAUAUCGUUCUUUCUAUUGUAUAUUAUGUUCUUUCUCGAUAUCAUAUUAAUCUUU", "Number": 9.15}
{"Binder": "Ib_S4_P5E.1_K5.1_C5.1_H5.1_[T1G]_A5.1_F5.1_[T9A]_T5.1 (ssRNA) RNA: UUUGACAACUGAUCGUUCUUUCUGGUAUUAUAAUUCUUUCUCGAUCAGUUGUCUUU", "Number": 5.89}
{"Binder": "ACAAACUGUACCCUUUUAUUAACAAAC (ssRNA) [Ie_S3_P5E.1_K5.1_C5.1_H5.1_[+4CCCTT]_A5.1_F5.1_T5.1]", "Number": 7.52}

Entry Ic_S2_P5E.1_K5.1_C5.1_H5.1_A5.1_[T5A]_[T6A]_[A7T]_F5.1_[T9A]_T5.1 (ssRNA) RNA: UUUGAUUAAUAUGAUAUCGUUCUUUCUUGUAAAUUAAUUCUUUCUCGAUAUCAUAUUAAUCUUU — recorded pKd = 8.65

Record Ic_S4_P5E.1_K5.1_C5.1_H5.1_A5.1_[T5A]_[T6A]_[A7T]_F5.1_[T8A]_[T9A]_[A10C]_T5.1 (ssRNA) RNA: UUUGACAACUGAUCGUUCUUUCUUGUAAAUAACUUCUUUCUCGAUCAGUUGUCUUU , field pKd: 7.58

Value of measured pKd for the entry UCUCUUUCUGUAUAUAAGUCUCUU (ssRNA) [Id_ii_S1_P3E.2_K3.1_C3.2_[C-2T]_[T-1C]_H3.1_A3.1_F3.1_T3.2_[T9A]_[A10G]] : 8.16

get_value(item= UCUCUUCCUAUAUAUAGUUCUCUU (ssRNA) [Id_ii_S1_P3E.3_K3.2_C3.2_[T-1C]_H3.2_A3.1_F3.1_T3.2_[T9G]_[A10T]] , readout=pKd) returns 6.10

The binder listed as Ie_S2_P3E.2_K3.1_C3.2_[+-1TTCCT]_H3.1_A3.1_F3.1_T3.2 (ssRNA) RNA: UUUGAUUAAUAUGAUAUCGUUCUUUCUCUUUCCUUGUAUAUAUAUUCUUUCUCGAUAUCAUAUUAAUCUUU has a reported pKd of 9.01

binder UCUCUUUGUAUUCAUUCUCUU (ssRNA) [Ic_S1_P4E.1_K4.1_C4.1_H4.1_A4.1_[A6T]_[T7C]_F4.1_[T8A]_[A9T]_T4.1] , pKd observed: 6.85

pKd for Id_i_S4_P3E.7_K3.3_C3.3_[T-3A]_[C-2A]_[T-1A]_H3.3_A3.1_F3.1_T3.2 (ssRNA) RNA: UUUGACAACUGAUCGUUCUUUCUAAAACACUAUAUAUUCUUUCUCGAUCAGUUGUCUUU is 6.35

The binder listed as UCUCUUUGUACUCCCAUCUCUU (ssRNA) [Ic_S1_P5E.1_K5.1_C5.1_H5.1_A5.1_[T5C]_[A7C]_F5.1_[T8C]_[T9C]_T5.1] has a reported pKd of 5.89

For this binder ( UCUCUUUGUAUAGCGUCUCUU (ssRNA) [Ic_S1_P4E.1_K4.1_C4.1_H4.1_A4.1_[T7G]_F4.1_[T8C]_[A9G]_T4.1] ), measured pKd is 6.55

The recorded pKd for UCUCUUUUUAUAUAUACUUCUCUU (ssRNA) [Id_ii_S1_P3E.3_K3.2_C3.2_[C-2T]_H3.2_A3.1_F3.1_T3.2_[T9C]_[A10T]] is 6.15

Item: UCUCUUUGUACUAUUUCUCUU (ssRNA) [Ic_S1_P4E.1_K4.1_C4.1_H4.1_A4.1_[T5C]_[A6T]_[T7A]_F4.1_[A9T]_T4.1] | pKd: 8.04

Briefly, pKd measured for Ib_S4_P5E.1_K5.1_C5.1_H5.1_[A4T]_A5.1_F5.1_[T8G]_T5.1 (ssRNA) RNA: UUUGACAACUGAUCGUUCUUUCUUGUUUUAGUAUUCUUUCUCGAUCAGUUGUCUUU : 6.97

What the record says about UCUCUUAGUAUAUUUCUCUU (ssRNA) [Ib_S1_P3E.1_K3.1_C3.1_H3.1_[T1A]_A3.1_F3.1_[A8T]_T3.1] : pKd is 5.92

Lab note: measured pKd of Ie_S2_P3E.2_K3.1_C3.2_H3.1_[+3TTCCT]_A3.1_F3.1_T3.2 (ssRNA) RNA: UUUGAUUAAUAUGAUAUCGUUCUUUCUCUUGUUUCCUAUAUAUAUUCUUUCUCGAUAUCAUAUUAAUCUUU was 7.72
